Molecular target: NRAS G12C (Homo sapiens, UniProt P01111+P62937, G12C)
Sequence (P01111 whole entry G12C): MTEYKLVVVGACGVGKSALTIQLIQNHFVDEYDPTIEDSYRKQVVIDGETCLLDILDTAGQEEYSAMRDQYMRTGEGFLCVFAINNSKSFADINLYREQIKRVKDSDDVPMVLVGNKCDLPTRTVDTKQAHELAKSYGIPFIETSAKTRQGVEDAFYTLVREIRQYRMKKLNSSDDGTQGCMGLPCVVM
Sequence (P62937 whole entry): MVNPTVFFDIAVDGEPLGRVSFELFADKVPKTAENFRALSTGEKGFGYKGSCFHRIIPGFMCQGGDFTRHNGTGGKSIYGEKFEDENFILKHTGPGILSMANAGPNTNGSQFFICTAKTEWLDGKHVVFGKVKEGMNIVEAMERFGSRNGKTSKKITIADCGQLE
Assay: Disruption of BRAF RBD interaction with Ras (FRET / MOA assay, with Cyclophilin A)
Format: biochemical
Conditions: NRAS G12C; read-out: NRAS G12C FRET data IC50
Measured IC50 accompanies every entry in the list below.

# compound, IC50
measured = [
    ("CCn1c(-c2cnccc2COC)c2c3cc(ccc31)-c1cc(O)cc(c1)C[C@H](NC(=O)[C@H](C(C)C)N(C)C(=O)OC1CNC1)C(=O)N1CCC[C@H](N1)C(=O)OCC(C)(C)C2", "100 to 1000 nM"),
    ("CCn1c(-c2cccnc2[C@H](C)OC)c2c3cc(ccc31)-c1csc(n1)C[C@H](NC(=O)[C@H](C(C)C)N(C)C(=O)N1CC[C@H]3CN(C)C[C@H]31)C(=O)N1CCC[C@H](N1)C(=O)OCC(C)(C)C2 (atropisomer, axis not shown)", "10 to 100 nM"),
    ("CCn1c(-c2cccnc2[C@H](C)OC)c2c3cc(ccc31)-c1csc(n1)C[C@H](NC(=O)[C@H](C(C)C)N(C)C(=O)N1CC[C@]3(CCN(C)C3=O)C1)C(=O)N1CCC[C@H](N1)C(=O)OCC(C)(C)C2 (single isomer, unassigned)", "100 to 1000 nM"),
    ("CCn1c(-c2cc(N3CCN(C)CC3)cnc2[C@H](C)OC)c2c3cc(ccc31)-c1csc(n1)C[C@H](NC(=O)[C@H](C(C)C)N(C)C(=O)N1CCOCC1)C(=O)N1CCC[C@H](N1)C(=O)OCC(C)(C)C2 (atropisomer, axis not shown)", "10 to 100 nM"),
    ("CCn1c(-c2cccnc2[C@H](C)OC)c2c3cc(ccc31)-c1csc(n1)C[C@H](NC(=O)[C@H](C(C)C)N(C)C(=O)N1CC([C@H](C)OC)C1)C(=O)N1CCC[C@H](N1)C(=O)OCC(C)(C)C2 (atropisomer, axis not shown)", "10 to 100 nM"),
    ("CCn1c(-c2cccnc2[C@H](C)OC)c2c3cc(ccc31)-c1csc(n1)C[C@H](NC(=O)[C@H](C(C)C)N(C)C(=O)N1CCOCC1)C(=O)N1CCC[C@H](N1)C(=O)OCC(C)(C)C2 (atropisomer, axis not shown)", "10 to 100 nM"),
]

For this compound ( CCn1c(-c2cc(C3CCN(C)CC3)cnc2[C@H](C)OC)c2c3cc(ccc31)-c1cc(O)cc(c1)C[C@H](NC(=O)[C@H](C(C)C)N(C)C(=O)[C@@H]1OCC[C@@H]1c1ccccc1)C(=O)N1CCC[C@H](N1)C(=O)OCC(C)(C)C2 (atropisomer, axis not shown) ), measured IC50 is < 10 nM

For this compound ( CCn1c(-c2cc(N3CCN(C)CC3)cnc2[C@H](C)OC)c2c3cc(ccc31)-c1csc(n1)C[C@H](NC(=O)[C@H](C1CCCC1)N(C)C(=O)N(C)C)C(=O)N1CCC[C@H](N1)C(=O)OCC(C)(C)C2 (atropisomer, axis not shown) ), measured IC50 is 10 to 100 nM
